Data origin: PubChem BioAssay (NCI)

- Test system: NCI-H522 lung
- METHOD: NCI tumour cell line growth inhibition, 48 h
VALUE KIND: TGI

Known results for molecules:
O=C(O)c1ccc2c(c1C(=O)O)C(=O)OC2(c1ccc(O)cc1)c1ccc(O)cc1	> 100 µM
COc1ccc2nc(NC(=O)CSc3nnc4n3S(=O)(=O)c3ccccc3N4c3ccccc3)sc2c1	> 100 µM

### Prompt So what does the record say about TGI for Cc1ccc(NC(=O)CC2Sc3ccccc3NC2=O)cc1C (centres undefined) ?
### Response > 100 µM

### Prompt Now this one: C#CCn1c(=O)c2ccccc2n(CC#C)c1=O
### Response > 10 µM
